testTarget: es nucleoside transporter (Homo sapiens, UniProt Q99808)
Construct: endogenous in cells
Sequence (Q99808 1-456): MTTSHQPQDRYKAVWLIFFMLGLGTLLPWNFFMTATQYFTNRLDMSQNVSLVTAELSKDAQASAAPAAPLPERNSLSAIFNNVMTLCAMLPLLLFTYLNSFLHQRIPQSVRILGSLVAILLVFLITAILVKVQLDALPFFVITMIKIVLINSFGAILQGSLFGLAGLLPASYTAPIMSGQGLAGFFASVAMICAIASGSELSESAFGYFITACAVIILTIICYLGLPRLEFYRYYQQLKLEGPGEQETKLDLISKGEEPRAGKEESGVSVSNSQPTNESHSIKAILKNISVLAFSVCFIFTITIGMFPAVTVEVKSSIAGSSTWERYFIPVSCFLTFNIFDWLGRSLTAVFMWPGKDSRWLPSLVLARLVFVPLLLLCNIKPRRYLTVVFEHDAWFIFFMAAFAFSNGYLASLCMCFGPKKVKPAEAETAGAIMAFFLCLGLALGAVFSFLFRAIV
assayDetails: Flow cytometric es nucleoside transporter binding assay (displacement of 5-(SAENTA)-X8-fluorescein) in K562 cells
measurementSetup: 25 nM 5-(SAENTA)-X8-fluorescein, 45 minutes, room temperature, read-out: Flow Cytometrically-Determined Ki Values
pKi: −log10 of the molar value.
measurementName: pKi

[
  {
    "smilesString": "O=[N+]([O-])c1ccc2c(c1)CCN(c1ncnc3c1ncn3[C@@H]1O[C@H](CO)[C@@H](O)[C@H]1O)C2",
    "observedMeasurement": 7.82
  },
  {
    "smilesString": "O=[N+]([O-])c1cccc2c1CCN(c1ncnc3c1ncn3[C@@H]1O[C@H](CO)[C@@H](O)[C@H]1O)C2",
    "observedMeasurement": 6.60
  },
  {
    "smilesString": "O=[N+]([O-])c1ccc2c(c1)CN(c1ncnc3c1ncn3[C@@H]1O[C@H](CO)[C@@H](O)[C@H]1O)CC2",
    "observedMeasurement": 9.35
  }
]
